Tested on: K24384-001-R-PDC complex spheroids, viability
Assay: Anticancer human tumor K24384-001-R-PDC patient-derived pancreatic adenocarcinoma cell line growth inhibition [GQUAD]
Conditions: second compound 3.16 µM; first compound 10 µM; stronger effect = lower value
Text: DNA G-quadruplex Stabilizer Agents in Combinations in Complex Spheroids A high-throughput screen of multi-cell type tumor spheroids was designed to identify active combinations of DNA G-quadruplex stabilizer agents and targeted small molecules. […] Compounds. […] If the clinical Cmax for an agent had not been determined, the highest concentration tested was 10 microM. […]
# reported viability, T/C; entries follow
Could you give me the number in %? Just the number is fine.

Guide cases for viability, T/C, answers given:
molecule	assayReadout	unitString	valueMeasured
C=CC(=O)N1CCN(c2nc(=O)n(-c3c(C)ccnc3C(C)C)c3nc(-c4c(O)cccc4F)c(F)cc23)C(C)C1 (stereo not given) + Cc1[nH]c2ccc(F)cc2c1-c1nc2c3cccnc3c3ncccc3c2[nH]1	viability, T/C	%	67.1
CC1COCCN1c1cc(C2(S(C)(=N)=O)CC2)nc(-c2ccnc3[nH]ccc23)n1 (stereo not given) + Cc1[nH]c2ccc(F)cc2c1-c1nc2c3cccnc3c3ncccc3c2[nH]1	viability, T/C	%	26
COc1ccc([C@@H](O)c2cc(-c3ncnc4cc(N5CCOCC5)ccc34)c(F)cc2Cl)nn1 + Cc1[nH]c2ccc(F)cc2c1-c1nc2c3cccnc3c3ncccc3c2[nH]1	viability, T/C	%	19.3
Nc1ccn(C2OC(CO)C(O)C2(F)F)c(=O)n1 (stereo not given) + CN(C)c1ccc(Nc2c3ccc(NC(=O)CCN4CCCC4)cc3nc3cc(NC(=O)CCN4CCCC4)ccc23)cc1	viability, T/C	%	15.6
C=CCn1c(=O)c2cnc(Nc3ccc(N4CCN(C)CC4)cc3)nc2n1-c1cccc(C(C)(C)O)n1 + Cc1[nH]c2ccc(F)cc2c1-c1nc2c3cccnc3c3ncccc3c2[nH]1	viability, T/C	%	19.1

Now let's try a different one.
Provide viability, T/C value for the following molecule: C#Cc1c(F)ccc2cc(O)cc(-c3ncc4c(N5CC6CCC(C5)N6)nc(OCC56CCCN5CC(F)C6)nc4c3F)c12 (stereo not given) + Cc1cnc(CNC(=O)c2c(=O)c3ccc(N4CCCN(C)CC4)nc3n3c2sc2ccccc23)cn1
11.9

* * *

tested on: K24384-001-R-PDC complex spheroids, viability; test: Anticancer human tumor K24384-001-R-PDC cell line growth inhibition [GQUAD]; settings: second compound 3.16 µM; first compound 0.1 µM; stronger effect = lower value;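 further: spheroids exposed to compounds for seven days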
The entries below are paired with their reported viability, T/C.
Please give a number only; it is taken to be in %.

molecule	measuredTarget	viability, T/C [%]
CC(C)n1c(=O)n(C)c2cnc3cc(F)c(-c4ccc(OCCCN5CCCCC5)nc4)cc3c21 + CN(C)c1ccc(Nc2c3ccc(NC(=O)CCN4CCCC4)cc3nc3cc(NC(=O)CCN4CCCC4)ccc23)cc1	K24384-001-R-PDC complex spheroids, viability	89.2
CC(=O)O[C@H]1C(=O)[C@@]2(C)[C@H]([C@H](OC(=O)c3ccccc3)[C@]3(O)C[C@H](OC(=O)[C@H](O)[C@@H](NC(=O)c4ccccc4)c4ccccc4)C(C)=C1C3(C)C)[C@]1(OC(C)=O)CO[C@@H]1C[C@@H]2O + Cc1[nH]c2ccc(F)cc2c1-c1nc2c3cccnc3c3ncccc3c2[nH]1	K24384-001-R-PDC complex spheroids, viability	18.9
O=C(NO)c1cnc(N2CCN(S(=O)(=O)c3ccc4ccccc4c3)CC2)nc1 + CN(C)c1ccc(Nc2c3ccc(NC(=O)CCN4CCCC4)cc3nc3cc(NC(=O)CCN4CCCC4)ccc23)cc1	K24384-001-R-PDC complex spheroids, viability	103
O=C(c1cc(Cc2n[nH]c(=O)c3ccccc23)ccc1F)N1CCN(C(=O)C2CC2)CC1 + Cc1cnc(CNC(=O)c2c(=O)c3ccc(N4CCCN(C)CC4)nc3n3c2sc2ccccc23)cn1	K24384-001-R-PDC complex spheroids, viability	52.8
O=c1[nH]cc(F)c(=O)[nH]1 + Cc1[nH]c2ccc(F)cc2c1-c1nc2c3cccnc3c3ncccc3c2[nH]1	K24384-001-R-PDC complex spheroids, viability	56.5

Annotate the molecule COc1ncnc(C2CC2)c1-c1ncc2cnn(Cc3ccc(-c4nc(C(F)(F)F)cn4C(C)C)cc3)c2n1 + Cc1[nH]c2ccc(F)cc2c1-c1nc2c3cccnc3c3ncccc3c2[nH]1 with its measured viability, T/C.
89.3

State its viability, T/C: C=CCn1c(=O)c2cnc(Nc3ccc(N4CCN(C)CC4)cc3)nc2n1-c1cccc(C(C)(C)O)n1 + Cc1cnc(CNC(=O)c2c(=O)c3ccc(N4CCCN(C)CC4)nc3n3c2sc2ccccc23)cn1
39.7

Give reported viability, T/C value for CCCS(=O)(=O)Nc1ccc(F)c(C(=O)c2c[nH]c3ncc(-c4ccc(Cl)cc4)cc23)c1F + Cc1cnc(CNC(=O)c2c(=O)c3ccc(N4CCCN(C)CC4)nc3n3c2sc2ccccc23)cn1
35.2

Write down viability, T/C measured for item COc1cc(C2c3cc4c(cc3C(OC3OC5COC(C)OC5C(O)C3O)C3COC(=O)C23)OCO4)cc(OC)c1O (stereo not drawn) + Cc1[nH]c2ccc(F)cc2c1-c1nc2c3cccnc3c3ncccc3c2[nH]1
71.8

Fill in reported viability, T/C for this entry: CC(C)n1c(=O)n(C)c2cnc3cc(F)c(-c4ccc(OCCCN5CCCCC5)nc4)cc3c21 + Cc1[nH]c2ccc(F)cc2c1-c1nc2c3cccnc3c3ncccc3c2[nH]1
89.2

Consider the molecule CC1COCCN1c1cc(C2(O)CC3CCC(C2)O3)c2cnn(-c3ccn[nH]3)c2n1 (stereo not drawn) + CN(C)c1ccc(Nc2c3ccc(NC(=O)CCN4CCCC4)cc3nc3cc(NC(=O)CCN4CCCC4)ccc23)cc1 . State its measured viability, T/C.
40.5

Return value of viability, T/C for input CC1COCCN1c1cc(C2(O)CC3CCC(C2)O3)c2cnn(-c3ccn[nH]3)c2n1 (stereo not drawn) + Cc1[nH]c2ccc(F)cc2c1-c1nc2c3cccnc3c3ncccc3c2[nH]1 , no commentary.
63.4

Read the entry CCCS(=O)(=O)Nc1ccc(F)c(C(=O)c2c[nH]c3ncc(-c4ccc(Cl)cc4)cc23)c1F + Cc1[nH]c2ccc(F)cc2c1-c1nc2c3cccnc3c3ncccc3c2[nH]1 and write its reported viability, T/C.
111

* * *

# IC50 per entry
system: K24384-001-R-PDC complex spheroids, viability; assay: Anticancer human tumor K24384-001-R-PDC cell line growth inhibition [GQUAD]; details: curve of first compound; second compound 3.16 µM;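 further: spheroids exposed to compounds for seven days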
All answers are understood in nM, so give the number only.

compound	measuredTarget	assayReadout	valueMeasured
COc1ccc([C@@H](O)c2cc(-c3ncnc4cc(N5CCOCC5)ccc34)c(F)cc2Cl)nn1 + CN(C)c1ccc(Nc2c3ccc(NC(=O)CCN4CCCC4)cc3nc3cc(NC(=O)CCN4CCCC4)ccc23)cc1	K24384-001-R-PDC complex spheroids, viability	IC50	2540

Name the recorded IC50 of the compound listed here: C#Cc1c(F)ccc2cc(O)cc(-c3ncc4c(N5CC6CCC(C5)N6)nc(OCC56CCCN5CC(F)C6)nc4c3F)c12 (stereo unspecified) + Cc1[nH]c2ccc(F)cc2c1-c1nc2c3cccnc3c3ncccc3c2[nH]1
969

Dear colleague, please send me the reported IC50 for CC1COCCN1c1cc(C2(S(C)(=N)=O)CC2)nc(-c2ccnc3[nH]ccc23)n1 (stereo unspecified) + CN(C)c1ccc(Nc2c3ccc(NC(=O)CCN4CCCC4)cc3nc3cc(NC(=O)CCN4CCCC4)ccc23)cc1 when you can.
1680

In one line, give reported IC50 of the entry COc1cc(C2c3cc4c(cc3C(OC3OC5COC(C)OC5C(O)C3O)C3COC(=O)C23)OCO4)cc(OC)c1O (stereo unspecified) + Cc1[nH]c2ccc(F)cc2c1-c1nc2c3cccnc3c3ncccc3c2[nH]1 .
1860

Kindly indicate its recorded IC50. Item: Nc1ccn(C2OC(CO)C(O)C2(F)F)c(=O)n1 (stereo unspecified) + Cc1[nH]c2ccc(F)cc2c1-c1nc2c3cccnc3c3ncccc3c2[nH]1
240

Quote IC50 reported for CC1COCCN1c1cc(C2(O)CC3CCC(C2)O3)c2cnn(-c3ccn[nH]3)c2n1 (stereo unspecified) + CN(C)c1ccc(Nc2c3ccc(NC(=O)CCN4CCCC4)cc3nc3cc(NC(=O)CCN4CCCC4)ccc23)cc1 please.
61.6

Please supply the value of reported IC50 for the item CC[C@@]1(O)C(=O)OCc2c1cc1n(c2=O)Cc2cc3c(CN(C)C)c(O)ccc3nc2-1 + Cc1[nH]c2ccc(F)cc2c1-c1nc2c3cccnc3c3ncccc3c2[nH]1
139

Give the reported IC50 for this compound. C=CCn1c(=O)c2cnc(Nc3ccc(N4CCN(C)CC4)cc3)nc2n1-c1cccc(C(C)(C)O)n1 + CN(C)c1ccc(Nc2c3ccc(NC(=O)CCN4CCCC4)cc3nc3cc(NC(=O)CCN4CCCC4)ccc23)cc1
235

For the compound COc1cccc2c1C(=O)c1c(O)c3c(c(O)c1C2=O)CC(O)(C(=O)CO)CC3OC1CC(N)C(O)C(C)O1 (stereo unspecified) + CN(C)c1ccc(Nc2c3ccc(NC(=O)CCN4CCCC4)cc3nc3cc(NC(=O)CCN4CCCC4)ccc23)cc1 , report IC50.
169

Give IC50 for C#Cc1c(F)ccc2cc(O)cc(-c3ncc4c(N5CC6CCC(C5)N6)nc(OCC56CCCN5CC(F)C6)nc4c3F)c12 (stereo unspecified) + CN(C)c1ccc(Nc2c3ccc(NC(=O)CCN4CCCC4)cc3nc3cc(NC(=O)CCN4CCCC4)ccc23)cc1
1750

Return value of IC50 for input Cc1[nH]c2ccccc2c1CCNCc1ccc(/C=C/C(=O)NO)cc1 + CN(C)c1ccc(Nc2c3ccc(NC(=O)CCN4CCCC4)cc3nc3cc(NC(=O)CCN4CCCC4)ccc23)cc1 , no commentary.
99.1

Write down IC50 measured for item CC1COCCN1c1cc(C2(O)CC3CCC(C2)O3)c2cnn(-c3ccn[nH]3)c2n1 (stereo unspecified) + Cc1[nH]c2ccc(F)cc2c1-c1nc2c3cccnc3c3ncccc3c2[nH]1
139

Tell us which IC50 value is on record for Nc1ccn(C2OC(CO)C(O)C2(F)F)c(=O)n1 (stereo unspecified) + CN(C)c1ccc(Nc2c3ccc(NC(=O)CCN4CCCC4)cc3nc3cc(NC(=O)CCN4CCCC4)ccc23)cc1
144

Given the compound CCc1c2c(nc3ccc(O)cc13)-c1cc3c(c(=O)n1C2)COC(=O)[C@]3(O)CC + Cc1[nH]c2ccc(F)cc2c1-c1nc2c3cccnc3c3ncccc3c2[nH]1 , write its reported IC50.
6.05

Supply reported IC50 belonging to this compound: O=C(NO)c1cnc(N2CCN(S(=O)(=O)c3ccc4ccccc4c3)CC2)nc1 + CN(C)c1ccc(Nc2c3ccc(NC(=O)CCN4CCCC4)cc3nc3cc(NC(=O)CCN4CCCC4)ccc23)cc1
475
